# apparent KD of MS2 coat protein listing for each entry below
- System: MS2 coat protein
- method: apparent KD of MS2 coat protein; higher = weaker reporter binding
- setup_conditions: Eterna round: R107; input ligand: arginine 13.2 mM
Write the number in µM without appending the unit.

Examples from the recorded data:
sequence_data	unit_abbrev	apparent KD of MS2 coat protein
AGUAUCAGUGGAAGGAGCGUCGCGAAUGCCACAUGAGGAUCACCCAUGUCGCCUUGAGCGCGACAGGUAGGUCGCCACGGUAGGC [SS-ArgB3]	µM	0.0532
AGUGUUAUAACUGAUACCAGACCUUUGCUUAUACAUGAGGAUCACCCAUGUAAAAUGGCGGUCCCUUGGCAGCAGAGAAUACGCA [#09 Same State - Theophylline B]	µM	0.0522
AUAACUGCCAAGGAUCAUGGGUGAGCAGAUACCAGCUAGGAAACUAGCCCUUGGCAGCUGCAACAUGAGGAUCACCCAUGUAAUA [(T)'-(M)'-(T1)-(T2)-(M1)-(M2)_Design8]	µM	0.0385
CCGUUUUAUGGCGACAUAGGGCGGACUGAAGGAGCGGUAAAACAGCCAGGUAGGUCGCAGAGAUCCACAUGAGGAUCACCCAUGU [!0.aC]	µM	0.0357
UCACGACGCAACGUGAAAUAAUAAACAGAAGGAGCGAGGAAAGCCUCAGGUAGGUCGCUGACAUGAGGAUCACCCAUGUAUUACA [Same State Arginine A GF5]	µM	0.0271

Please examine the following record next.
Request: Specify measured apparent KD of MS2 coat protein for GCCGCGGCCGGAAUAAACAUGGGUAAAUAACGAGGACCGGUACGGCCGCCACUCGAGAUAAAUAACAUGAGGAUCACCCAUGUAC [Exclusion Tryp A GF11] .
Result: 0.043

---

- Test system: K4 kissing-loop RNA reporter;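 note: bound reporter read as fluorescence of individual clusters on recovered sequencing chips by microscopy, with normalized cluster intensities fitted with a binding model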
- method: apparent KD of K4 kissing-loop reporter; higher = weaker reporter binding
- setup_conditions: Eterna round: R107; input ligand: arginine 13.2 mM
Criterion: apparent KD of K4 kissing-loop reporter meeting or surpassing 200 nM. Met: 1. Not met: 0.

Would you please look over these solved cases?
sequence_data	classification
CCUAUCUCUUACGAUACCAGUCAAUGAUAUUUUAUCAAUGCCCUCACCGAGUGAUGUUCGGACCCUUGGCAGCGUAUGGGAUAGG [kjnjmullin]	0
GGACGCCGGUCGGCCGCCACUCACAGCAGCCAGUGAUGUUGGAUUGUAGCGGAGUGAUGUUCCGAGAGGACCGGGACUGCAGUCU [Same State Tryptophan B GF 11]	0
AAUUCAAACUGAAGGAGCGAGCAUUUUGGAGUGAUGUUCCAAGCGAGUGAUGUUCGCAUAGCUCAGGUAGGUCGCAGUUUGGAUA [Same State Arginie B GF 14]	0

Request: Would you say GUCUCGAGUGAUGUUCGGGUCGAUUGGGAAGGAGCGCCCGGAAGGGCAGGUAGGUCGCCCGGGCCGCGCGGGAAACCGCGCGUCC [#2 Same State - Arginine A Attempt #8 (HarryS)] shows apparent KD of K4 kissing-loop reporter at minimum 200 nM?
Result: 0

Request: Reported apparent KD of K4 kissing-loop reporter at or above 200 nM? UGUGAACAAAAGUAGAGUGGACCACUAUAGCGAGGACCGGUACGGCCGCCACUCGUACAUGAAUUCAGUGAUGUUGAAAUGAGCU [whbob_EX_Tryp_A_t14]
Result: 1
